// data source = patent US20240293392A1

Reported IC50 values follow for various compounds
Target: recombinant N-terminal PMS2 (residues 1-365) (Homo sapiens)
Construct: recombinant N-terminal PMS2 (residues 1-365)
Sequence (P54278 1-365): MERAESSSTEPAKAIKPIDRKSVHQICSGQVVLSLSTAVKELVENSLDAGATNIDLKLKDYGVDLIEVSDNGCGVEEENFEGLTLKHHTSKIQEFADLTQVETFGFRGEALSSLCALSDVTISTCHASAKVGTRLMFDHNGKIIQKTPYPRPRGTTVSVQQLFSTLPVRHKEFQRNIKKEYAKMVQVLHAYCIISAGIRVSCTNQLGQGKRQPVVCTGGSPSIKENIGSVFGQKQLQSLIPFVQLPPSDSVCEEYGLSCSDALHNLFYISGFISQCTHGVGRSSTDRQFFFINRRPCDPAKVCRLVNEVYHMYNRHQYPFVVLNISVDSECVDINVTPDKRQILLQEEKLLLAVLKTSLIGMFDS
Experiment: Fluorescence Polarisation Assay for PMS2
Assay type: binding
Settings: fluorescence polarisation probe displacement; 10 nM N-terminal PMS2, 5 nM probe compound; read-out: PMS2 IC50

[Q] So what's the measured IC50 for this one? O=C(c1c(O)cc(O)cc1OCc1ccccc1)N1Cc2cccc(CN3CCOCC3)c2C1 [Example 10]
[A] 1 to 10 µM

[Q] Give the measured IC50 of CC(=O)N1CCC[C@@H](Nc2cccc3c2CN(C(=O)c2c(O)cc(O)cc2OCc2ccccc2)CC3)C1 [Example 68] .
[A] > 10 µM

[Q] Given CN1CCN(Cc2cc3c(c(N[C@H]4CCOC4)c2)CN(C(=O)c2c(O)cc(O)cc2OCc2ccccc2)CC3)CC1 [Example 121] , state its recorded IC50.
[A] < 1 µM

[Q] # get_value(readout='IC50', item= O=C(c1c(O)cc(O)cc1OCc1ccccc1)N1Cc2cccc(CNC3CCOC3)c2C1 (centres unmarked) [Example 80] )
[A] 1 to 10 µM

[Q] Return reported IC50; argument: CN1CC(Nc2cccc3c2CN(C(=O)c2c(O)cc(O)cc2OCc2ccccc2)CC3)CC1=O (single isomer, unassigned) [Example 62]
[A] < 1 µM

Further cases:
[Q] If you can, please state the reported IC50 value of CN1CC(Nc2cccc3c2CN(C(=O)c2c(O)cc(O)cc2OCc2ccccc2)C3)CC1=O (centres unmarked) [Example 18] .
[A] 1 to 10 µM

[Q] # lookup: IC50 of N#Cc1cccc2c1CN(C(=O)c1c(O)cc(O)cc1OCc1ccccc1)C2 [Example 91]
[A] < 1 µM

[Q] Recorded IC50 for CN(C)Cc1ccc2c(c1)CCN(C(=O)c1c(O)cc(O)cc1OCc1ccccc1)C2 [Example 46] , please?
[A] 1 to 10 µM

[Q] I am curious: what IC50 value has been reported for O=C(c1c(O)cc(O)cc1OCc1ccccn1)N1CCc2cccc(N[C@@H]3CCOC3)c2C1 [Example 56] ?
[A] > 10 µM

[Q] Sample O=C(c1c(O)cc(O)cc1OCc1ccccc1)N1Cc2cccc(NC3COCC(F)(F)C3)c2C1 (centres unmarked) [Example 32] — what was its IC50?
[A] 1 to 10 µM

[Q] Need IC50, item COc1ccc(COc2cc(O)cc(O)c2C(=O)N2Cc3cccc(NC4CCOC4)c3C2)cc1 (centres unmarked) [Example 39]
[A] 1 to 10 µM

[Q] Given the compound O=C(c1c(O)cc(O)cc1OCc1ccccc1)N1Cc2cccc(N[C@@H]3CCOC3)c2C1 [Example 23] , what is its reported IC50?
[A] 1 to 10 µM

[Q] For the compound CN1CC(Nc2cccc3c2CN(C(=O)c2c(O)cc(O)cc2OCc2ccccc2)CC3)CC1=O (centres unmarked) [Example 42] , what IC50 is on record?
[A] < 1 µM
